Documented pEC50 across a set of binders
# ASSAYED_SYSTEM: T1, human VEGFA165 (human, UniProt P15692-4 27-191)
# T1 construct: Bought protein from two suppliers, treated as one molecule; the supplier is named under assay; also called antigen VEGFA
# T1 sequence (P15692 other isoform, or with tags, fused parts or gaps limits assumed): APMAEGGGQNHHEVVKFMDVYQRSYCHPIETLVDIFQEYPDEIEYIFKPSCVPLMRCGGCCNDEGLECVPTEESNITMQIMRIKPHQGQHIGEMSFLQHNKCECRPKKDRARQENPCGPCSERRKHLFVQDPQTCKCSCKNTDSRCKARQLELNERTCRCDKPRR
# PROTOCOL: ELISA, coated human VEGFA165, anti-His detection
pEC50 here: minus log base 10 of the concentration, concentration in moles per litre.

Completed entries (count: 8):
**Query** Quick one: pEC50 of 2V33-9GS (VHH, Tandem bivalent nanobody) QLQLVESGGGSVQPGGSLRLSCEVSGRTFSSYTMGWFRQAPGKEREFVVAISKGGYKYDSVSLEARFTISKDNTKNTVYLQMNSLKPEDTAVYYCAATRAYGSSRLRLAKTYEYWGQGTQVTVSSGGGGSGGGSQLQLVESGGGSVQPGGSLRLSCEVSGRTFSSYTMGWFRQAPGKEREFVVAISKGGYKYDSVSLEARFTISKDNTKNTVYLQMNSLKPEDTAVYYCAATRAYGSSRLRLAKTYEYWGQGTQVTVSS ?
**Result** 9.49

**Query** Return reported pEC50; argument: 2V41-9GS (VHH, Tandem bivalent nanobody) QLQLVESGGGSVQPGGSLRLSCEVSGRTFSSYTMGWFRQAPGKEREFVVAISKGGYKYDSVSLEARFTISKDNTKNTVYLQMNSLKPEDTAVYYCAGTRAYGSSRLRLAKTYEYWGQGTQVTVSSGGGGSGGGSQLQLVESGGGSVQPGGSLRLSCEVSGRTFSSYTMGWFRQAPGKEREFVVAISKGGYKYDSVSLEARFTISKDNTKNTVYLQMNSLKPEDTAVYYCAGTRAYGSSRLRLAKTYEYWGQGTQVTVSS
**Result** 9.57

**Query** Reported pEC50 for 2V15-9GS (VHH, Tandem bivalent nanobody) QLQLVESGGGSVQPGGSLRLSCEVSGRTFASYTMGWFRQAPGKEREFVVAISKGGYKYDSVSLEARFTISKDNTKNTVYLQMNSLKPEDTAVYYCAGTRAYGSSRLRLAETYEYWGQGTQVTVSSGGGGSGGGSQLQLVESGGGSVQPGGSLRLSCEVSGRTFASYTMGWFRQAPGKEREFVVAISKGGYKYDSVSLEARFTISKDNTKNTVYLQMNSLKPEDTAVYYCAGTRAYGSSRLRLAETYEYWGQGTQVTVSS : what is it?
**Result** 9.62

**Query** Quick check: pEC50 of V1-V30 (bispecific antibody) QLQLVESGGGSVQPGGSLRLSCEVSGRTFSSYTMGWFRQAPGKEREFVVAISKGGYKYDSVSLEARFTISKDNTKNTVYLQMNSLKPEDTAVYYCAATRAYGSSRLRLADTYEYWGQGTQVTVSSGGGGSGGGSQLQLVESGGGSVQPGGSLRLSCEVSGRTFSSYTMGWFRQAPGKGREFVVAISKGGYKYDAVSLEARFTISKDNTKNTVYLQMNSLKPEDTAVYYCAATRAYGSSRLRLAKTYEYWGQGTQVTVSS ?
**Result** 9.51

**Query** What pEC50 value was documented for this binder, 2V36-9GS (VHH, Tandem bivalent nanobody) QLQLVESGGGSVQPGGSLRLSCEVSGRTFASYTMGWFRQAPGKEREFVVAISKGGYKYDSVSLEARFTISKDNTKNTVYLQMNSLKPEDTAVYYCAGTRAYGSSRLRLADTYEYWGQGTQVTVSSGGGGSGGGSQLQLVESGGGSVQPGGSLRLSCEVSGRTFASYTMGWFRQAPGKEREFVVAISKGGYKYDSVSLEARFTISKDNTKNTVYLQMNSLKPEDTAVYYCAGTRAYGSSRLRLADTYEYWGQGTQVTVSS ?
**Result** 9.52

**Query** Given V1-V40 (bispecific antibody) QLQLVESGGGSVQPGGSLRLSCEVSGRTFSSYTMGWFRQAPGKEREFVVAISKGGYKYDSVSLEARFTISKDNTKNTVYLQMNSLKPEDTAVYYCAATRAYGSSRLRLADTYEYWGQGTQVTVSSGGGGSGGGSQLQLVESGGGSVQPGGSLRLSCEVSGRTFTSYTMGWFRQAPGKEREFVVAISKGGYKYNAVSLEARFTISKDNTKNTVYLQMNSLKPEDTAVYYCAATRAYGSSRLRLAKTYEYWGQGTQVTVSS , state its recorded pEC50.
**Result** 9.38

**Query** If you can, please state the reported pEC50 value of 2V1-9GS (VHH, Tandem bivalent nanobody) QLQLVESGGGSVQPGGSLRLSCEVSGRTFSSYTMGWFRQAPGKEREFVVAISKGGYKYDSVSLEARFTISKDNTKNTVYLQMNSLKPEDTAVYYCAATRAYGSSRLRLADTYEYWGQGTQVTVSSGGGGSGGGSQLQLVESGGGSVQPGGSLRLSCEVSGRTFSSYTMGWFRQAPGKEREFVVAISKGGYKYDSVSLEARFTISKDNTKNTVYLQMNSLKPEDTAVYYCAATRAYGSSRLRLADTYEYWGQGTQVTVSS .
**Result** 10.05

**Query** Quick check: pEC50 of 2V30-9GS (VHH, Tandem bivalent nanobody) QLQLVESGGGSVQPGGSLRLSCEVSGRTFSSYTMGWFRQAPGKGREFVVAISKGGYKYDAVSLEARFTISKDNTKNTVYLQMNSLKPEDTAVYYCAATRAYGSSRLRLAKTYEYWGQGTQVTVSSGGGGSGGGSQLQLVESGGGSVQPGGSLRLSCEVSGRTFSSYTMGWFRQAPGKGREFVVAISKGGYKYDAVSLEARFTISKDNTKNTVYLQMNSLKPEDTAVYYCAATRAYGSSRLRLAKTYEYWGQGTQVTVSS ?
**Result** 9.60

Consider now this further binder.
**Query** If you can, please state the reported pEC50 value of 2V29-9GS (VHH, Tandem bivalent nanobody) QLQLVESGGGSVQPGGSLRLSCEVSGRTFSSYTMGWFRQAPGKEREFVVAISKGGYKYDSVSLEARFTISKDNTKNTVYLQMNSLKPEDTAVYYCAGTRAYGSSRLRLANTYEYWGQGTQVTVSSGGGGSGGGSQLQLVESGGGSVQPGGSLRLSCEVSGRTFSSYTMGWFRQAPGKEREFVVAISKGGYKYDSVSLEARFTISKDNTKNTVYLQMNSLKPEDTAVYYCAGTRAYGSSRLRLANTYEYWGQGTQVTVSS .
**Result** 9.51
